Assay: activity coefficient (dimensionless); of the first substance listed, at infinite dilution; xn = mol fraction of the nth substance listed
Conditions: 368.15 K; 101.33 kPa; Liquid; Chromatography; x1 = 0
measurement_type: activity coefficient
Lab note: record just the number, no unit beside it.

C1CCCCCCC1 [cyclooctane] + CCCCCCCCCCCCn1cc[n+](C)c1.O=S(=O)([N-]S(=O)(=O)C(F)(F)F)C(F)(F)F: 2.86
CC(C)CC(C)(C)C [2,2,4-trimethylpentane] + CCCCCCCCCCCCn1cc[n+](C)c1.O=S(=O)([N-]S(=O)(=O)C(F)(F)F)C(F)(F)F: 3.91
C1CCCCC1 [cyclohexane] + CCCCCCCCCCCCn1cc[n+](C)c1.O=S(=O)([N-]S(=O)(=O)C(F)(F)F)C(F)(F)F: 2.21

[ask] Query: activity coefficient; subject: Cc1ccccc1C [1,2-dimethylbenzene] + CCCCCCCCCCCCn1cc[n+](C)c1.O=S(=O)([N-]S(=O)(=O)C(F)(F)F)C(F)(F)F
[reply] 1.01

[ask] Which activity coefficient value belongs to CCCC(=O)OC [methyl butanoate] + CCCCCCCCCCCCn1cc[n+](C)c1.O=S(=O)([N-]S(=O)(=O)C(F)(F)F)C(F)(F)F ?
[reply] 0.762

[ask] Name the recorded activity coefficient for C=CCCCCCCCC [1-decene] + CCCCCCCCCCCCn1cc[n+](C)c1.O=S(=O)([N-]S(=O)(=O)C(F)(F)F)C(F)(F)F .
[reply] 4.6

[ask] Record request: activity coefficient value, item COC(C)(C)C [2-methoxy-2-methylpropane] + CCCCCCCCCCCCn1cc[n+](C)c1.O=S(=O)([N-]S(=O)(=O)C(F)(F)F)C(F)(F)F
[reply] 1.2

[ask] Item under review: CC1CCCCC1 [methylcyclohexane] + CCCCCCCCCCCCn1cc[n+](C)c1.O=S(=O)([N-]S(=O)(=O)C(F)(F)F)C(F)(F)F . Reported activity coefficient?
[reply] 2.58

----------
Experiment: activity coefficient (dimensionless); of the first substance listed, at infinite dilution; xn = mol fraction of the nth substance listed
Settings: 358.15 K; 101.33 kPa; Liquid; Chromatography; x1 = 0
measurement_type: activity coefficient
Lab note: write the figure by itself, no unit.

Would you please look over these solved cases?
CC(C)CC(C)(C)C [2,2,4-trimethylpentane] + CCCCCCCCCCCCn1cc[n+](C)c1.O=S(=O)([N-]S(=O)(=O)C(F)(F)F)C(F)(F)F: 3.85
CCCCCCC [heptane] + CCCCCCCCCCCCn1cc[n+](C)c1.O=S(=O)([N-]S(=O)(=O)C(F)(F)F)C(F)(F)F: 3.74

For the next question, use this compound.
[ask] Any idea what its activity coefficient is? The compound is C1CCCC1 [cyclopentane] + CCCCCCCCCCCCn1cc[n+](C)c1.O=S(=O)([N-]S(=O)(=O)C(F)(F)F)C(F)(F)F
[reply] 1.84

----------
Test: activity coefficient (dimensionless); of the first substance listed, at infinite dilution; xn = mol fraction of the nth substance listed
Settings: 338.15 K; 101.33 kPa; Liquid; Chromatography; x1 = 0
measurement_type: activity coefficient
Please reply with the value in numeric form only.

Cc1ccccc1 [toluene] + CCCCCCCCCCCCn1cc[n+](C)c1.O=S(=O)([N-]S(=O)(=O)C(F)(F)F)C(F)(F)F: 0.765
Cc1ccccc1C [1,2-dimethylbenzene] + CCCCCCCCCCCCn1cc[n+](C)c1.O=S(=O)([N-]S(=O)(=O)C(F)(F)F)C(F)(F)F: 0.892
C#CCCCCC [1-heptyne] + CCCCCCCCCCCCn1cc[n+](C)c1.O=S(=O)([N-]S(=O)(=O)C(F)(F)F)C(F)(F)F: 1.59

Next, consider the following compound.
[ask] Quick one: activity coefficient of C=CCCCCCCCC [1-decene] + CCCCCCCCCCCCn1cc[n+](C)c1.O=S(=O)([N-]S(=O)(=O)C(F)(F)F)C(F)(F)F ?
[reply] 4.36

----------
Test: activity coefficient (dimensionless); of the first substance listed, at infinite dilution; xn = mol fraction of the nth substance listed
Conditions: 318.15 K; 101.33 kPa; Liquid; Chromatography; x1 = 0
Decide using activity coefficient alone. Strictly below 2: Satisfied. Equal to or above 2: Not satisfied.

Solved entries (count: 8):
CC(C)CO [2-methyl-1-propanol] + CCCCCCCCCCCCn1cc[n+](C)c1.O=S(=O)([N-]S(=O)(=O)C(F)(F)F)C(F)(F)F: Satisfied
CC(C)CC(C)(C)C [2,2,4-trimethylpentane] + CCCCCCCCCCCCn1cc[n+](C)c1.O=S(=O)([N-]S(=O)(=O)C(F)(F)F)C(F)(F)F: Not satisfied
O [water] + CCCCCCCCCCCCn1cc[n+](C)c1.O=S(=O)([N-]S(=O)(=O)C(F)(F)F)C(F)(F)F: Not satisfied
CCCCC [pentane] + CCCCCCCCCCCCn1cc[n+](C)c1.O=S(=O)([N-]S(=O)(=O)C(F)(F)F)C(F)(F)F: Not satisfied
CCCC=O [butanal] + CCCCCCCCCCCCn1cc[n+](C)c1.O=S(=O)([N-]S(=O)(=O)C(F)(F)F)C(F)(F)F: Satisfied
C=CCCCCCCCC [1-decene] + CCCCCCCCCCCCn1cc[n+](C)c1.O=S(=O)([N-]S(=O)(=O)C(F)(F)F)C(F)(F)F: Not satisfied
CCC(=O)CC [pentan-3-one] + CCCCCCCCCCCCn1cc[n+](C)c1.O=S(=O)([N-]S(=O)(=O)C(F)(F)F)C(F)(F)F: Satisfied
C1CCCCCCC1 [cyclooctane] + CCCCCCCCCCCCn1cc[n+](C)c1.O=S(=O)([N-]S(=O)(=O)C(F)(F)F)C(F)(F)F: Not satisfied

[ask] Given the entry C#CCCCC [1-hexyne] + CCCCCCCCCCCCn1cc[n+](C)c1.O=S(=O)([N-]S(=O)(=O)C(F)(F)F)C(F)(F)F , would its reported activity coefficient be below 2?
[reply] Satisfied

[ask] Does C=C(C)c1ccccc1 [(1-methylethenyl)benzene] + CCCCCCCCCCCCn1cc[n+](C)c1.O=S(=O)([N-]S(=O)(=O)C(F)(F)F)C(F)(F)F have activity coefficient strictly under 2?
[reply] Satisfied

[ask] Confirm or reject: activity coefficient of CC#N [acetonitrile] + CCCCCCCCCCCCn1cc[n+](C)c1.O=S(=O)([N-]S(=O)(=O)C(F)(F)F)C(F)(F)F lies strictly below 2
[reply] Satisfied

[ask] Just wondering, is activity coefficient of CCCCCC [hexane] + CCCCCCCCCCCCn1cc[n+](C)c1.O=S(=O)([N-]S(=O)(=O)C(F)(F)F)C(F)(F)F below 2?
[reply] Not satisfied

[ask] Lab note: confirm whether the reported activity coefficient for this molecule is below 2, equality not counting. molecule: C=CCCCCC [1-heptene] + CCCCCCCCCCCCn1cc[n+](C)c1.O=S(=O)([N-]S(=O)(=O)C(F)(F)F)C(F)(F)F
[reply] Not satisfied

[ask] Hi there! Is activity coefficient for CC(C)(C)O [2-methylpropan-2-ol] + CCCCCCCCCCCCn1cc[n+](C)c1.O=S(=O)([N-]S(=O)(=O)C(F)(F)F)C(F)(F)F below 2, do you know?
[reply] Satisfied

----------
Test: activity coefficient (dimensionless); of the first substance listed, at infinite dilution; xn = mol fraction of the nth substance listed
Settings: 338.15 K; 101.33 kPa; Liquid; Chromatography; x1 = 0
measurement_type: activity coefficient
Lab note: record just the number, no unit beside it.

[ask] Which activity coefficient is listed for CCC(C)CC [3-methylpentane] + CCCCCCCCCCCCn1cc[n+](C)c1.O=S(=O)([N-]S(=O)(=O)C(F)(F)F)C(F)(F)F ?
[reply] 2.89

[ask] Give the measured activity coefficient of CC1CCCCC1 [methylcyclohexane] + CCCCCCCCCCCCn1cc[n+](C)c1.O=S(=O)([N-]S(=O)(=O)C(F)(F)F)C(F)(F)F .
[reply] 2.49

[ask] Field request: activity coefficient | item: C=CCCCC [hex-1-ene] + CCCCCCCCCCCCn1cc[n+](C)c1.O=S(=O)([N-]S(=O)(=O)C(F)(F)F)C(F)(F)F
[reply] 2.25

[ask] Tell me the measured activity coefficient of CCCCO [butan-1-ol] + CCCCCCCCCCCCn1cc[n+](C)c1.O=S(=O)([N-]S(=O)(=O)C(F)(F)F)C(F)(F)F , please.
[reply] 1.38

[ask] Could you tell me which activity coefficient is on file for CCCCCCCCCC [decane] + CCCCCCCCCCCCn1cc[n+](C)c1.O=S(=O)([N-]S(=O)(=O)C(F)(F)F)C(F)(F)F ?
[reply] 5.95

[ask] # activity coefficient lookup, item C1CCOC1 [tetrahydrofuran] + CCCCCCCCCCCCn1cc[n+](C)c1.O=S(=O)([N-]S(=O)(=O)C(F)(F)F)C(F)(F)F
[reply] 0.44

[ask] Need activity coefficient, item CCCCCCCCC [nonane] + CCCCCCCCCCCCn1cc[n+](C)c1.O=S(=O)([N-]S(=O)(=O)C(F)(F)F)C(F)(F)F
[reply] 5.03

[ask] Query (compound): CC(C)(C)O [2-methylpropan-2-ol] + CCCCCCCCCCCCn1cc[n+](C)c1.O=S(=O)([N-]S(=O)(=O)C(F)(F)F)C(F)(F)F ; field requested: activity coefficient
[reply] 1.04

[ask] Look at this compound and give its reported activity coefficient. CCC[N+](=O)[O-] [1-nitropropane] + CCCCCCCCCCCCn1cc[n+](C)c1.O=S(=O)([N-]S(=O)(=O)C(F)(F)F)C(F)(F)F
[reply] 0.596

[ask] What value of activity coefficient has been reported for the following compound? C1CCCCCC1 [cycloheptane] + CCCCCCCCCCCCn1cc[n+](C)c1.O=S(=O)([N-]S(=O)(=O)C(F)(F)F)C(F)(F)F
[reply] 2.47
